assay: Stability of polymorphs exposed to the air at room temperature for 12 months, purity by HPLC; format: physicochemical; settings: exposed to the air at room temperature for 12 months
Answer each item with its documented Purity (after exposed for 12 months).
Give your result in % as a bare value.

Query: Specify reported Purity (after exposed for 12 months) for the compound shown: N#C/N=C(\NCCCCCCOc1ccc(Cl)cc1)Nc1ccncc1 [Polymorph III]
Response: 97.56

Query: Specify reported Purity (after exposed for 12 months) for the compound shown: N#C/N=C(\NCCCCCCOc1ccc(Cl)cc1)Nc1ccncc1 [Polymorph VI]
Response: 99.28

Query: Specify reported Purity (after exposed for 12 months) for the compound shown: N#C/N=C(\NCCCCCCOc1ccc(Cl)cc1)Nc1ccncc1 [Polymorph IV]
Response: 99.45

Query: Specify reported Purity (after exposed for 12 months) for the compound shown: N#C/N=C(\NCCCCCCOc1ccc(Cl)cc1)Nc1ccncc1 [Polymorph V]
Response: 95.02

Query: Specify reported Purity (after exposed for 12 months) for the compound shown: N#C/N=C(\NCCCCCCOc1ccc(Cl)cc1)Nc1ccncc1 [Polymorph I]
Response: 97.49

Query: Specify reported Purity (after exposed for 12 months) for the compound shown: N#C/N=C(\NCCCCCCOc1ccc(Cl)cc1)Nc1ccncc1 [Polymorph II]
Response: 99.36
